test: growth of efflux-deficient E. coli DRC39 – strain DRC39, OD650, 24 h, E. coli filamentation inducers, primary screen (AID 1178);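 note: growth measured as culture turbidity by optical density at 650 nm; test concentration not given here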; settings: E. coli DRC39 acrAB, higher = more signal, called active from +8 up or from −8 down
Readout name: z-score

* CC(C)=C1C(=O)C(c2ccccc2)=C2CN3C(=O)N(CCc4ccccc4)C(=O)[C@]3(Cc3ccc(C(F)(F)F)cc3)[C@H]21 | -0.943
* CCOC(=O)C[C@H]1[C@H](OC(=O)c2cc3ccccc3oc2=O)[C@@H](NC(=O)c2ccccc2)c2cc(OCCCO)ccc2N1C(=O)c1ccccc1 | -0.397
* C=CCC(OC(C)=O)[C@@H]1[C@@H](N(Cc2cccc3ccccc23)C(=O)Cc2ccc(F)cc2)c2cc(OCCCO)ccc2N1C(=O)c1ccc2ccccc2c1 (stereo partly drawn) | 0.655

----------
test system: Human papillomavirus type 1a protein E7 (residues 44-93); assay: small molecules binding HPV E7 44-93 – biochemical, small-molecule microarray, residues 44-93, 635 nm fluorescence, primary screen (AID 1108); conditions: fluorescence 635 nm, higher = more signal;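 note: E7 fragment applied at 1 µg/mL in TBST for 1 h at 4 C; score combines spot fluorescence with its signal to noise ratio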
Property: composite z-score; scope: individual molecules
Readout name: composite z-score

* CCOC(=O)C1=CC[C@@H](c2ccccc2F)N(S(=O)(=O)c2ccc(C)cc2)[C@H]1c1ccccc1 | 1.34
* CCOC(=O)C[C@H]1[C@H](OC(=O)c2ccc(C(=O)c3ccccc3)cc2)[C@@H](NC(=O)c2ccc(-c3ccccc3)cc2)c2cc(OCCCO)ccc2N1C(=O)Cc1ccc(OC)cc1 | 0.625
* COc1ccc(C(=O)Nc2ccc(CN3C(=O)[C@]4(O[C@H](CC(=O)N5Cc6ccccc6C[C@H]5CO)[C@@H]([Si](C)(C)c5ccc(OC)cc5)[C@@H]4C)c4ccccc43)cc2)cc1 | 1.33
* Cc1ccccc1C(O)C1C=CC2C(=O)NC(=O)C2N1Nc1ccccn1 (configuration not stated) | -0.439
* O=C1OCCC=C[C@H]2OC34C=CCN(Cn5nnc6ccccc65)C(=O)[C@H]3N(CCCO)C(=O)[C@@H]4C12 (some centres not stated) | -0.69
* CC(C)[Si]1(C(C)C)OCc2cc(C3CC3)nc(-c3ccc(Oc4ccccc4)cc3)c21 | -1.16
* COCC(=C=CC[C@H](O)c1ccccc1OCCO)C[C@H](O)c1ccccn1 | -0.0881

----------
assay: JC-1 mitochondrial potential readout, lung cancer cells – cell-based, A549, JC-1 fluorescence, basal, 24 h, 100 nL, profiling panel (AID 1138); settings: higher = more signal;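 note: A549 lung adenocarcinoma cells under basal conditions with no added stimulus; test concentration not given here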
Lab note: compare z-score against 0.3. Equal or greater, write class 1. Smaller, write class 0.

- C=CCNC(=O)[C@@H]1[C@H]2C(=O)O[C@H](c3ccccc3)[C@H](c3ccccc3)N2[C@H](c2ccc(O)cc2)[C@@]12C(=O)N(C(=O)OCCOC)c1ccc(C#CC3=CCCCC3)cc12: class 0
- CC(C)C(CO)N1C(=O)[C@@H]2[C@H]3C(=O)OCC=C[C@H]3OC23C=CCN(c2ccc(Cl)cc2)C(=O)[C@@H]13 (stereo partly specified): class 1
- CCN(CC)c1ccc(N2CC=CC34O[C@@H]5/C=C\CCCOC(=O)C5[C@H]3C(=O)N(C(C)CO)[C@@H]4C2=O)cc1 (stereo partly specified): class 1
- C=CC[C@@H](OC(=O)Nc1ccc(SC)cc1)c1ccc(O)c(F)c1: class 0
- CS(=O)(=O)CCOC(=O)C1=CC(CCCO)=CC(c2ccc(CN3CCCC3)cc2)N(Cc2sc3ccccc3c2Cl)C=C1C(=O)OCCS(C)(=O)=O (stereo unspecified): class 1
- OCCCC1=CC(c2ccc(CN3CCCC3)cc2)N(Cc2cc3c(cc2Br)OCO3)CC1 (stereo unspecified): class 0
- C=CCC(OC(C)=O)[C@@H]1[C@@H](N(Cc2cccc3ccccc23)C(=O)Cc2ccc(OC)cc2)c2cc(OCCCO)ccc2N1C(=O)c1ccc(-c2ccccc2)cc1 (stereo partly specified): class 0
- [N-]=[N+]=Nc1ccccc1C[C@@]1(C(N)=O)N=C(c2ccc(OCCCO)cc2)O[C@@H]1c1ccccc1N=[N+]=[N-]: class 0
- COC(=O)[C@@]1(Cc2ccc(OC)cc2)[C@H]2c3cc(C(=O)N(C)C)n(Cc4ccc(OC(F)(F)F)cc4)c3C[C@H]2CN1C(=O)c1ccccc1: class 1
- Cc1ccc(F)cc1S(=O)(=O)N[C@@H]1CCN(Cc2ccc(Br)cc2)C1: class 1
- COc1cc(C(O)C2C=CC3C(=O)N(C)C(=O)C3N2Nc2ccccc2)cc(OC)c1OC (stereo unspecified): class 0
- COCCCNC(=O)[C@@]1(CCC(=O)OC(C)(C)C)N=C(c2ccc(OCCCO)cc2)O[C@H]1c1ccccc1N=[N+]=[N-]: class 1
- C=C(COC)C(=O)CC[C@@H](OC(C)=O)c1cccc(OCCO)c1: class 1
- Cc1cc(C)c(C(O)C2C=CC3C(=O)N(c4ccccc4)C(=O)C3N2Nc2ccccc2F)c(C)c1 (stereo unspecified): class 0
- CCOC(=O)C[C@H]1[C@H](OC(=O)c2cc3ccccc3oc2=O)[C@@H](NC(=O)CC(C)C)c2cc(OCCCO)ccc2N1C(=O)c1ccc2ccccc2n1: class 0
- NCCCCCNC(=O)[C@@H]1C[C@@H]2C(=O)N[C@@H](CCCCN)C(=O)N2[C@@H]1c1ccc(O)cc1: class 0

Hello, the source for this data is PubChem BioAssay, in case you need it.
